Assay text: Tanguay_ZF_120hpf_PFIN_legacy: (Legacy) Oregon State University Tanguay Lab 120 Hour Post-fertilization zebrafish Assay for Pectoral Fin Malformation (AID 2283648);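 further: each larva judged yes or no for fin defect by brightfield with dead larvae skipped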
Experimental: Tanguay_ZF_120hpf_legacy is a whole embryo, multiplexed endpoint assay using zebrafish larvae exposed for 120 hours post fertilization on a 96-well plate.Tanguay_ZF_120hpf_PFIN_legacy is one of one assay component(s) measured or calculated from the Tanguay_ZF_120hpf_legacy assay. […] This assay endpoint, Tanguay_ZF_120hpf_PFIN_legacy, was analyzed in the positive analysis fitting direction relative to DMSO as the negative control and baseline of activity. […]
Inconclusive results are not listed. Calls of active or inactive are those of the source. How the source made its calls: active means hit-call score of the fitted dose curve at least 0.9, where 1 is the maximum; inconclusive means response in the unintended direction; inactive means score below 0.9.
Endpoint name: outcome

molecule=C#CCN1C(=O)COc2cc(F)c(N3C(=O)C4=C(CCCC4)C3=O)cc21 endpoint_name=outcome measured_value=inactive
molecule=CNC(=O)Oc1ccccc1OC(C)C endpoint_name=outcome measured_value=inactive
molecule="CC[C@H](C)[C@H]1O[C@]2(C=C[C@@H]1C)C[C@@H]1C[C@@H](C/C=C(\\C)[C@@H](O[C@H]3C[C@H](OC)[C@@H](O[C@H]4C[C@H](OC)[C@@H](O)[C@H](C)O4)[C@H](C)O3)[C@@H](C)/C=C/C=C3\\CO[C@@H]4[C@H](O)C(C)=C[C@@H](C(=O)O1)[C@]34O)O2 (tested in a mixture with another compound)" endpoint_name=outcome measured_value=inactive

---

Assay text: IUF_NPC1b_proliferation_BrdU_72hr: Leibniz Research Institute for Environmental Medicine (IUF) 72-hour Neural Progenitor Cell Bromodeoxyuridine (BrdU) Proliferation Assay (NPC1b) (AID 2284207)
Protocol: IUF_NPC1 is a cell-based, multiplexed assay that uses hNPC, a human primary neural progenitor cells, with measurements taken at 72 hours after chemical dosing in a 96-well plate. […] Cell proliferation is assessed as an increase in sphere area using automated phase contrast imaging and as incorporation of Bromodeoxyuridine (BrdU) during DNA synthesis using a luminescence-based cell proliferation ELISA. […]
Active and inactive are the calls of the source. How the source made its calls: active means hit-call score of the fitted dose curve at least 0.9, where 1 is the maximum; inactive means score below 0.9.
Endpoint name: outcome

smi=CC(C)N(C(=O)COc1nnc(C(F)(F)F)s1)c1ccc(F)cc1 measured_value=inactive
smi=COP(=S)(OC)Oc1ccc([N+](=O)[O-])cc1 measured_value=inactive
smi=O=[N+]([O-])/N=C1\NCCN1Cc1ccc(Cl)nc1 measured_value=inactive

---

Read-out: Macrophage colony-stimulating factor (MCSF), CSF1 (gene 1435)
Assay text: BSK_hDFCGF_MCSF: BioMAP Diversity Plus: hDFCGF Assay for Macrophage colony-stimulating factor (MCSF) Biomarker Activity (AID 2283060)
Condition summary: primary human foreskin fibroblasts; actives raise or lower the signal
The source made the active and inactive calls. How the source made its calls: active means hit-call score of the fitted dose curve at least 0.9, where 1 is the maximum; inactive means score below 0.9.
Lab note: assign the record to one of active, inactive

Known results for molecules:
molecule=CNC(=O)Oc1cccc(N=CN(C)C)c1 group_label=active
molecule="CCC(C)Nc1c([N+](=O)[O-])cc(C(C)(C)C)cc1[N+](=O)[O-] (configuration not stated)" group_label=active
molecule=CCN(CC)C(=O)SCc1ccc(Cl)cc1 group_label=inactive
molecule=O=[N+]([O-])c1c(Cl)c(Cl)c(Cl)c(Cl)c1Cl group_label=active
molecule=COP(=S)(OC)Oc1ccc([N+](=O)[O-])cc1 group_label=active

Inquiry: Hi team, can someone confirm the assay call for OCCOc1ccccc1 ?
Reply text: inactive

Inquiry: Hi team, can someone confirm the assay call for C#CCN1C(=O)COc2cc(F)c(N3C(=O)C4=C(CCCC4)C3=O)cc21 ?
Reply text: inactive
